Answer each item with its documented abundance fitness.
B1: Protein S100-G, residues 1 to 79; numbered along this chain, P02633 (parent)
chain: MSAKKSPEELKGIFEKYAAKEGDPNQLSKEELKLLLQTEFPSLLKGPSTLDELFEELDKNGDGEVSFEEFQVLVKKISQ

- Variants of: B1
- experimental-protocol: abundance fitness (aPCA) (normalised: wild type 0, dead -1); higher = more abundant; growth selection in yeast, the domain comes from the species named
- reported-conditions: Bos taurus
Give a plain numeric answer without units written out.

Consider MSAKKSPEELKGIFEKYAAKEGDPNQESKEELKLLLQTEFPSLLKGPSTLDELFEELDKNGDGEVSFEEFQVLVKKISQ [L27E] . Its measured abundance fitness is -1.04

Quick note, abundance fitness for MSAKKSPEELKGIFEKYAAKEGDPNQLSKEELKLLLQTEFPSLLKGPSTLDELFEELDKNGDGEVSFEEFQVHVKKISQ [L73H] landed at -0.151

Value of measured abundance fitness for the entry MSAKKSPEELKGIFEKYAAKEGDPNQLSKEELKLLLQTEFPSLLKGPSTLDELFEELDKNGDGEVHFEEFQVLVKKISQ [S66H] : -0.146

Briefly, abundance fitness measured for MSAKKSPEELKGIFEKYAAKEGDPNQLSKEELKLLLQTEFPSLLKGPSTLDELFEELDKNGDGEVSFEEFQFLVKKISQ [V72F] : -0.032

The variant identified as MSAKKSPEELKGIFEKYAAKEHDPNQLSKEELKLLLQTEFPSLLKGPSTLDELFEELDKNGDGEVSFEEFQVLVKKISQ [G22H] registered its abundance fitness at -0.103

The reported value for MSAKKSPEELKGIFEKYAAKEGDPNQLSKEELKLLLQTEFPSLLKGPSTLDELFEELDKNCDGEVSFEEFQVLVKKISQ [G61C] in terms of abundance fitness is 0.026

Value of abundance fitness reported for the variant MSAKKSPEELKFIFEKYAAKEGDPNQLSKEELKLLLQTEFPSLLKGPSTLDELFEELDKNGDGEVSFEEFQVLVKKISQ [G12F] is -0.01

What the record says about MSAKKSPEELKGIFEKYAAKEGDPNQLSKYELKLLLQTEFPSLLKGPSTLDELFEELDKNGDGEVSFEEFQVLVKKISQ [E30Y] : abundance fitness is -0.042

// MSAKKSPEELKGIFEKYAAKEGDPNQLSKEELKLLLQTEFPSLLKAPSTLDELFEELDKNGDGEVSFEEFQVLVKKISQ [G46A] : abundance fitness value = 0.042

The recorded abundance fitness for entry MSAKKSPEELKGIFEKYAAKEGDPNQLSKEENKLLLQTEFPSLLKGPSTLDELFEELDKNGDGEVSFEEFQVLVKKISQ [L32N] equals -0.673

Please fill in: abundance fitness reported for MSAKKSPEELKGIKEKYAAKEGDPNQLSKEELKLLLQTEFPSLLKGPSTLDELFEELDKNGDGEVSFEEFQVLVKKISQ [F14K] = -1.18

Sure, the documented abundance fitness for MSAKKSPEELKGIFEKYAAKEGDPNQLSKEELKLLLQTEFPSLLKGPSTLDELFEELDKNGDGEVSFEEFQILVKKISQ [V72I] is -0.022

Memo: MSAKKSPEELKGIFEKYAAKEGDPNQLSKEELKLLLQTEFPSLLKGASTLDELFEELDKNGDGEVSFEEFQVLVKKISQ [P47A] , reported abundance fitness: 0.094

The variant MSAKKSPEELKGIFEKYAAKEGDPFQLSKEELKLLLQTEFPSLLKGPSTLDELFEELDKNGDGEVSFEEFQVLVKKISQ [N25F] showed abundance fitness equal to 0.027

Lab book: abundance fitness of MSAKKSPEELKGIFEKYAAKEGDPNQLSKEELKLLLQTEFPSLLKGPSTLDELFEELDKNGDGEVSFEEFQVMVKKISQ [L73M] noted as -0.05

The variant listed as MSAKKSPEELKGIFEKYAAKEGDPNQLSKEELKLLLQTEFPSLLKGPSTLDELFEELDKNGDGEVSFEEFNVLVKKISQ [Q71N] has a reported abundance fitness of -0.06

Noted for MSAKKSPEELKGIFEKYAAKEGDPNQLSKEELKLLLQTEFPSLLKGPSTLDELFEELDKNGDGEVSFEEFQVLVKKISA [Q79A] : its abundance fitness reads 0.008

Reported abundance fitness of MSAKKSPEELKGIFEKYAAKEGDPNQLSKEELCLLLQTEFPSLLKGPSTLDELFEELDKNGDGEVSFEEFQVLVKKISQ [K33C] : -0.072

Notebook: MSAKKSPPELKGIFEKYAAKEGDPNQLSKEELKLLLQTEFPSLLKGPSTLDELFEELDKNGDGEVSFEEFQVLVKKISQ [E8P] , abundance fitness read as -0.163

Lookup result for MSAKKSPEELKGIFEKYAAKEGDPNQLSKEELKLLLQTEFPSLLKGRSTLDELFEELDKNGDGEVSFEEFQVLVKKISQ [P47R] ; measured abundance fitness: -0.05

For record MSAKKSPEELKGIFEKYAAKEGDPEQLSKEELKLLLQTEFPSLLKGPSTLDELFEELDKNGDGEVSFEEFQVLVKKISQ [N25E] the listed abundance fitness is -0.012

// recorded abundance fitness for MSAKKSPEELKGIFEKYAAKEGDPNLLSKEELKLLLQTEFPSLLKGPSTLDELFEELDKNGDGEVSFEEFQVLVKKISQ [Q26L] : 0.006

Form: variant = MSAKKSPEELKGIFEKYAAKEGDPNQHSKEELKLLLQTEFPSLLKGPSTLDELFEELDKNGDGEVSFEEFQVLVKKISQ [L27H] ; abundance fitness = -0.751

Item: MSAKKSPEELKGIFEKYAAKEGDPNQLSKEELKLLLQTEFPSLLKGPSTLDELFEELDKNGDGEVSFEEFQVLVKKYSQ [I77Y] | abundance fitness: -0.104

Item: MSAKKSPEELKGIFEKYAAKEGDPNQLSKEELKLLLQTEFPSLLKGPSTLKELFEELDKNGDGEVSFEEFQVLVKKISQ [D51K] | abundance fitness: -0.043

Summary for this variant, MSAKKSPEELKGIFEKYAAKEGDPNQLSKEELKLLLQTEFPSLLKGPSTLDELFEELSKNGDGEVSFEEFQVLVKKISQ [D58S] : abundance fitness is 0.025

The recorded abundance fitness for entry MSAKKSPEELKGIFEKYAAKEGDPNQLSKEELVLLLQTEFPSLLKGPSTLDELFEELDKNGDGEVSFEEFQVLVKKISQ [K33V] equals -0.016

Notebook: MSAKKSPEELKGIFEKYAAKEGDPNQLSKEELKLLLQTEFPSLLKGPSTLDELFFELDKNGDGEVSFEEFQVLVKKISQ [E55F] , abundance fitness read as 0.055

variant MSAKKSPEELKGIFEKYAAKEGDPNQLSKEELKLLLQTEFPSLLKGPSTLDELFEELDQNGDGEVSFEEFQVLVKKISQ [K59Q] , abundance fitness observed: -0.009

Summary for this variant, MSAKKSPEELKGIFEKYAAKEGDPNQLSKEELKLLLQTEFPSLLKGPSTLDELFEELKKNGDGEVSFEEFQVLVKKISQ [D58K] : abundance fitness is -0.008

Measured abundance fitness, MSAKKSPEELKGIFEKYAAKEGDPNQLSKEELKLLLQTEFPSLLKGPSTLDELFEELHKNGDGEVSFEEFQVLVKKISQ [D58H] : -0.096

The recorded abundance fitness for MSAKKSPEELKGIFEKYAWKEGDPNQLSKEELKLLLQTEFPSLLKGPSTLDELFEELDKNGDGEVSFEEFQVLVKKISQ [A19W] is -0.111

Lookup result for MSAKKSPEELKGIFEKYAAKEGDPNQLSKEELELLLQTEFPSLLKGPSTLDELFEELDKNGDGEVSFEEFQVLVKKISQ [K33E] ; measured abundance fitness: -0.032

Entry MSAKKSPEELKGIFEKYAAKEGDPNQLSKEELKLLLQTEFPSLLKGPSTLDELFEELDKNGDGEVSFEEFQVLVKKISC [Q79C] — recorded abundance fitness = -0.032

So, MSAKKSPEELKGIFEKYAAKEGDPNQLSKEELKLLLQTEFPSLLKGPSTLDELFEELDKNGDGEVCFEEFQVLVKKISQ [S66C] ? Its abundance fitness was 0.053

Reported abundance fitness ( MSAKKSPEELKGIFEKYAAKEGDPNQLSKEELKLLLQTEFPSLLKGPSTLDELFEELDKNGDGEPSFEEFQVLVKKISQ [V65P] ) = -0.34
